Target: T1, human CCR8 (human, UniProt P51685 1-355)
T1 construct: Native CCR8 on human PBMC (CCR8+ CD3+ or CCR8+ CD4+ lymphocytes); also called chemokine (C-C motif) receptor 8
T1 sequence (P51685 whole entry): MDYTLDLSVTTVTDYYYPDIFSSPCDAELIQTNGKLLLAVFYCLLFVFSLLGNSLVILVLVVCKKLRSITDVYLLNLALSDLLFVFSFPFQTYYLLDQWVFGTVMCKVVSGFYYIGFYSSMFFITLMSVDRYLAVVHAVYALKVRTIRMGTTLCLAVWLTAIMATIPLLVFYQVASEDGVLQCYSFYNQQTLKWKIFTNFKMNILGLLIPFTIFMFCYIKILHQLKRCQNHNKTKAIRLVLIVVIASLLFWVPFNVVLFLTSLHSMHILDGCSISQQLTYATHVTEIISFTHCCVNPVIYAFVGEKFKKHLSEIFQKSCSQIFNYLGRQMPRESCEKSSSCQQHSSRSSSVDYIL
Test: flow blocking, PBMC CCR8+CD3+; competitor PE-AB12
Please enter Fulfilled where MFI is greater than or equal to 800, and Not fulfilled where it is lower.

Example entries begin here.
[
  {
    "binder": "AB10 (antibody, V domains shown, Hybridoma monoclonal; also called antibody 10; clone 10) VH: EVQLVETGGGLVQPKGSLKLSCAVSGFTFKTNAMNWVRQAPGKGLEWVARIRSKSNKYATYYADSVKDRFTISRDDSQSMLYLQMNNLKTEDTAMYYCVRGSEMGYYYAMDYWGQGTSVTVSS VL: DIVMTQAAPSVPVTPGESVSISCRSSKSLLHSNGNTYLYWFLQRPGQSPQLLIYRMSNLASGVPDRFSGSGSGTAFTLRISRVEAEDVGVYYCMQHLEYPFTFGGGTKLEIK",
    "labelClass": "Not fulfilled"
  },
  {
    "binder": "AB8 (antibody, V domains shown, Hybridoma monoclonal; also called antibody 8; clone 8) VH: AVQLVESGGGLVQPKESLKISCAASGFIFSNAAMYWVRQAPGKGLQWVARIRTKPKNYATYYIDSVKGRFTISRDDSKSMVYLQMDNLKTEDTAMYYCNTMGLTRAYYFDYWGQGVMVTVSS VL: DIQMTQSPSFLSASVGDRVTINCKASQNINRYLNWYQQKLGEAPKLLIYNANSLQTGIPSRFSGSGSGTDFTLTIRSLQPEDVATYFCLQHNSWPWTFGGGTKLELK",
    "labelClass": "Not fulfilled"
  },
  {
    "binder": "AB7 (antibody, V domains shown, Hybridoma monoclonal; also called antibody 7; clone 7) VH: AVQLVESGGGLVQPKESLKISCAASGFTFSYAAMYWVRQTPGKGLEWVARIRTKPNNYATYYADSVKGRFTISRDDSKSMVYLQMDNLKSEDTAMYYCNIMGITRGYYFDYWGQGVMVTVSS VL: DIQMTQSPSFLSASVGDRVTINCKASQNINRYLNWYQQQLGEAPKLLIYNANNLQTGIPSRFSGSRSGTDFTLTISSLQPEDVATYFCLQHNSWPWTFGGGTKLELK",
    "labelClass": "Not fulfilled"
  },
  {
    "binder": "AB6 (antibody, V domains shown, Hybridoma monoclonal; Same VH/VL entries as AB5; also called antibody 6; clone 6) VH: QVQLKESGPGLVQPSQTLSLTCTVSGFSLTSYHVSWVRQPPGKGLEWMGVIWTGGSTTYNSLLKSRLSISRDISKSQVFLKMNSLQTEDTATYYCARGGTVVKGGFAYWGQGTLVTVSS VL: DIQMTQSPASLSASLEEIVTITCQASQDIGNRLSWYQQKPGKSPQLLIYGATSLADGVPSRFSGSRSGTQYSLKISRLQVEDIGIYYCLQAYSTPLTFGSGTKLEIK",
    "labelClass": "Fulfilled"
  }
]

Could you tell me if the measured MFI of AB5 (antibody, V domains shown, Hybridoma monoclonal; Same VH/VL entries as AB6; also called antibody 5; clone 5) VH: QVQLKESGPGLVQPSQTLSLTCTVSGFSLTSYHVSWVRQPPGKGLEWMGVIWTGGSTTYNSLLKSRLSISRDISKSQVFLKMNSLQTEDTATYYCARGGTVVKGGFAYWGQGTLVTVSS VL: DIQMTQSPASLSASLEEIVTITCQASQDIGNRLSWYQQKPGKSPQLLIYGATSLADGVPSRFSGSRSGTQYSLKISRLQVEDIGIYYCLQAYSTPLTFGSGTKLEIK reaches 800 or more?
Fulfilled

Reported MFI reaches at least 800 for AB11 (antibody, V domains shown, Hybridoma monoclonal; also called antibody 11; clone 11) VH: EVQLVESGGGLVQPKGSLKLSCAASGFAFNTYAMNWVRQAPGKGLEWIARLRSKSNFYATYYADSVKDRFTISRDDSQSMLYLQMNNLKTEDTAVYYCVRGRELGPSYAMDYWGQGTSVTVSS VL: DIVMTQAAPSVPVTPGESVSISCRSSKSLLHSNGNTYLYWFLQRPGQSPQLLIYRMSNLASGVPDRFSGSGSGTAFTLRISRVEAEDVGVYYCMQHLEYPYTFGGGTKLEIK ?
Not fulfilled
